Where a name gives a salt, the structure may show the parent alone.
# MIC per entry for E. Coli ATCC 25922
ENDPOINT NAME: MIC

>  <COMPOUND>
CNc1cc(F)cc2cc(C(=O)Nc3cnc(C(=O)NCCCN4CCOCC4)nc3)c(=O)[nH]c12

>  <ENDPOINT NAME>
MIC

>  <RECORDED RESULT>
0.25 µg/mL

$$$$
>  <COMPOUND>
CNc1cc(F)cc2cc(C(=O)Nc3cnc(C(=O)NCCN4CCCCC4)nc3)c(=O)[nH]c12.O=CO

>  <ENDPOINT NAME>
MIC

>  <RECORDED RESULT>
> 16 µg/mL

$$$$
>  <COMPOUND>
CNc1cccc2cc(C(=O)NC3CCN(c4ncc(C(=O)O)s4)C3)c(=O)[nH]c12 (centres unmarked)

>  <ENDPOINT NAME>
MIC

>  <RECORDED RESULT>
> 64 µg/mL

$$$$
>  <COMPOUND>
CNc1cc(F)cc2c(O)c(C(=O)Nc3ccc(C(=O)NS(C)(=O)=O)cc3)c(=O)[nH]c12

>  <ENDPOINT NAME>
MIC

>  <RECORDED RESULT>
> 32 µg/mL

$$$$
>  <COMPOUND>
CNc1cccc2cc(C(=O)NCCc3noc(=O)[nH]3)c(=O)[nH]c12

>  <ENDPOINT NAME>
MIC

>  <RECORDED RESULT>
> 32 µg/mL

$$$$
>  <COMPOUND>
CCOC(=O)c1ccc(NC(=O)c2c(O)c3cc(F)cc(NC)c3[nH]c2=O)cc1

>  <ENDPOINT NAME>
MIC

>  <RECORDED RESULT>
> 16 µg/mL

$$$$
>  <COMPOUND>
CNc1cc(F)cc2cc(C(=O)Nc3cncnc3)c(=O)[nH]c12

>  <ENDPOINT NAME>
MIC

>  <RECORDED RESULT>
> 8 µg/mL

$$$$
>  <COMPOUND>
CNc1cc(F)cc2cc(C(=O)Nc3ccc(CO)cc3CN(C)C3CCCCC3)c(=O)[nH]c12

>  <ENDPOINT NAME>
MIC

>  <RECORDED RESULT>
16 µg/mL

$$$$
>  <COMPOUND>
CNc1cccc2cc(C(=O)Nc3cccc(C(=O)O)c3)c(=O)[nH]c12

>  <ENDPOINT NAME>
MIC

>  <RECORDED RESULT>
> 64 µg/mL

$$$$
>  <COMPOUND>
CNc1cc(F)cc2cc(C(=O)Nc3ccc(C(=O)O)cc3CN(CCN)C3CCCCC3)c(=O)[nH]c12.O=C(O)C(F)(F)F

>  <ENDPOINT NAME>
MIC

>  <RECORDED RESULT>
> 64 µg/mL

$$$$
>  <COMPOUND>
CNc1cccc2cc(C(=O)Nc3cnc(N4CCN(C)CC4)nc3)c(=O)[nH]c12

>  <ENDPOINT NAME>
MIC

>  <RECORDED RESULT>
> 16 µg/mL

$$$$
>  <COMPOUND>
CNc1cc(F)cc2c(O)c(C(=O)Nc3ccc(C(=O)NS(=O)(=O)N(C)C)cc3CN3CCCCC3)c(=O)[nH]c12

>  <ENDPOINT NAME>
MIC

>  <RECORDED RESULT>
64 µg/mL

$$$$
>  <COMPOUND>
CNc1cc(F)cc2cc(C(=O)Nc3ccc(C(=O)O)cc3CNCCO)c(=O)[nH]c12 [Example 74, hydrochloride]

>  <ENDPOINT NAME>
MIC

>  <RECORDED RESULT>
> 64 µg/mL

$$$$
>  <COMPOUND>
CNc1cccc2cc(C(=O)NCc3cccc(C(=O)O)c3)c(=O)[nH]c12

>  <ENDPOINT NAME>
MIC

>  <RECORDED RESULT>
> 32 µg/mL

$$$$
>  <COMPOUND>
CNc1cc(F)cc2cc(C(=O)Nc3ccc(C(=O)O)cc3CN(CCCN(C)C)CCCN(C)C)c(=O)[nH]c12

>  <ENDPOINT NAME>
MIC

>  <RECORDED RESULT>
> 32 µg/mL

$$$$
>  <COMPOUND>
CNc1cc(F)cc2cc(C(=O)Nc3cnccc3C)c(=O)[nH]c12

>  <ENDPOINT NAME>
MIC

>  <RECORDED RESULT>
> 8 µg/mL

$$$$
>  <COMPOUND>
CNc1cc(F)cc2cc(C(=O)Nc3ccc(C(N)=O)cc3CN(C)C3CCCCC3)c(=O)[nH]c12

>  <ENDPOINT NAME>
MIC

>  <RECORDED RESULT>
> 32 µg/mL

$$$$
>  <COMPOUND>
CNc1cc(F)cc2cc(C(=O)Nc3ccc(C4OC(=O)NC4=O)cc3)c(=O)[nH]c12 (centres unmarked)

>  <ENDPOINT NAME>
MIC

>  <RECORDED RESULT>
> 16 µg/mL

$$$$
>  <COMPOUND>
CNc1cc(F)cc2c(O)c(C(=O)Nc3ccc(C(=O)OC)cc3CN3CCCCC3)c(=O)[nH]c12

>  <ENDPOINT NAME>
MIC

>  <RECORDED RESULT>
> 16 µg/mL

$$$$
>  <COMPOUND>
CNc1cc(F)cc2c(N[C@H]3C[C@@H](N)C3)c(C(=O)Nc3ccc(C(=O)O)cc3)c(=O)[nH]c12

>  <ENDPOINT NAME>
MIC

>  <RECORDED RESULT>
> 32 µg/mL

$$$$
>  <COMPOUND>
CNc1cccc2cc(C(=O)Nc3ccc(C(=O)NCCN4CCOCC4)cc3)c(=O)[nH]c12

>  <ENDPOINT NAME>
MIC

>  <RECORDED RESULT>
> 32 µg/mL

$$$$
>  <COMPOUND>
CNc1cc(F)cc2cc(C(=O)Nc3ccc(NC(=O)NS(C)(=O)=O)cc3)c(=O)[nH]c12

>  <ENDPOINT NAME>
MIC

>  <RECORDED RESULT>
> 16 µg/mL

$$$$
>  <COMPOUND>
CNc1cccc2cc(C(=O)NCc3ccc(C(=O)O)cc3C)c(=O)[nH]c12

>  <ENDPOINT NAME>
MIC

>  <RECORDED RESULT>
> 64 µg/mL

$$$$
>  <COMPOUND>
CNc1cc(F)cc2c(NCC3CCNCC3)c(C(=O)Nc3ccc(C(=O)O)cc3)c(=O)[nH]c12.O=CO

>  <ENDPOINT NAME>
MIC

>  <RECORDED RESULT>
> 32 µg/mL

$$$$
>  <COMPOUND>
CNc1cc(F)cc2cc(C(=O)OCc3ccncc3N)c(=O)[nH]c12

>  <ENDPOINT NAME>
MIC

>  <RECORDED RESULT>
> 16 µg/mL

$$$$
>  <COMPOUND>
CNc1cccc2cc(C(=O)Nc3cnc(NCc4csc(N)n4)nc3)c(=O)[nH]c12

>  <ENDPOINT NAME>
MIC

>  <RECORDED RESULT>
> 4 µg/mL

$$$$
>  <COMPOUND>
CNc1cccc2cc(C(=O)NC3CCN(c4ncc(C(=O)O)s4)CC3)c(=O)[nH]c12

>  <ENDPOINT NAME>
MIC

>  <RECORDED RESULT>
> 64 µg/mL

$$$$
>  <COMPOUND>
CNc1cccc2cc(C(=O)NCCc3cccnc3)c(=O)[nH]c12

>  <ENDPOINT NAME>
MIC

>  <RECORDED RESULT>
> 16 µg/mL

$$$$
>  <COMPOUND>
CNc1cc(F)cc2cc(C(=O)Nc3cnc(N4CCNCC4)nc3)c(=O)[nH]c12.Cl

>  <ENDPOINT NAME>
MIC

>  <RECORDED RESULT>
> 16 µg/mL

$$$$
>  <COMPOUND>
CNc1cccc2cc(C(=O)Nc3ccc(C(=O)O)cc3OCCN3CCN(C)CC3)c(=O)[nH]c12.Cl

>  <ENDPOINT NAME>
MIC

>  <RECORDED RESULT>
> 16 µg/mL

$$$$
>  <COMPOUND>
CNc1cc(F)cc2cc(C(=O)Nc3ccc(C(=O)O)cc3CN(CC(=O)O)C3CCCCC3)c(=O)[nH]c12

>  <ENDPOINT NAME>
MIC

>  <RECORDED RESULT>
> 64 µg/mL

$$$$
>  <COMPOUND>
CNc1cc(F)cc2cc(C(=O)Nc3ccc(C(=O)O)cc3CCCCN(C)C)c(=O)[nH]c12

>  <ENDPOINT NAME>
MIC

>  <RECORDED RESULT>
> 8 µg/mL

$$$$
